assay: Redispersibility after long-time storage (rate of change in absorbance of agitated ink after one year); type: physicochemical; settings: redispersing effect of the saturated aliphatic carboxylic acid in the ink
Observable: Redispersion

>>> print(df.to_string())
                smiles_record  reading
0  O=C(O)CC(O)(CC(=O)O)C(=O)O     Fair
1       CCCCCCCCCCCCCCCC(=O)O     Good
2              O=C(O)CCC(=O)O     Good

---

The following molecules are shown together with reported pKa1 values.
Experiment: Acid dissociation constant pKa of saturated aliphatic carboxylic acids
Assay type: physicochemical
Conditions: first acid dissociation constant
From the text: The acid dissociation constant pKa1 of the saturated aliphatic carboxylic acid is preferably 4.0 or more, more preferably 4.0 to 4.5, still more preferably 4.1 to 4.5. If the saturated aliphatic carboxylic acid is divalent or more polyvalent, the second acid dissociation constant pKa2 is preferably 5.0 or more. The acid dissociation constant pKa can be measured by, for example, titration, absorptiometry, or capillary electrophoresis.
Observable: pKa1

>>> df
                smiles_record  observable  reading
0            O=C(O)CCCCC(=O)O        pKa1     4.26
1  O=C(O)CC(O)(CC(=O)O)C(=O)O        pKa1     2.87
2              O=C(O)CCC(=O)O        pKa1        4
3       CCCCCCCCCCCCCCCC(=O)O        pKa1     4.64
